experiment: Cytotoxicity against human H1299 cells at 100 uM after 48 hrs by MTT assay; type: functional; settings: NCI-H1299, 48 h
The following molecules are shown together with reported viability at 100 µM values.
Return type: number; implicit unit %.

Observe how each entry below is paired with its result.
| molecule | unit_text | viability at 100 µM |
| --- | --- | --- |
| O=C1c2ccccc2C(=O)c2c1ccc1nccnc21 | % | 6 |
| O=C1c2ccccc2C(=O)c2c1ccc1nc(CCl)[nH]c21 | % | 26 |
| Cc1nc2ccc3c(c2nc1C)C(=O)c1ccccc1C3=O | % | 25 |
| CC(C)(C)c1nc2ccc3c(c2[nH]1)C(=O)c1ccccc1C3=O | % | 56 |
| CC/C=C/c1nc2ccc3c(c2[nH]1)C(=O)c1ccccc1C3=O | % | 14 |
| CC1(c2ccccc2)Nc2ccc3c(c2N1)C(=O)c1ccccc1C3=O (stereo unspecified) | % | 29 |

Sample "O=C1c2ccccc2C(=O)c2c1ccc1[nH]c(=S)[nH]c21" — what was its viability at 100 µM?
54

Any idea what its viability at 100 µM is? The molecule is "O=C1c2ccccc2C(=O)c2c1ccc1nc(-c3ccc([N+](=O)[O-])cc3)[nH]c21"
33

Which measured viability at 100 µM value corresponds to "CCc1nc2ccc3c(c2[nH]1)C(=O)c1ccccc1C3=O" ?
37

Consider the molecule shown here: "O=C1c2ccccc2C(=O)c2c1ccc1nc(-c3ccc(Br)cc3)[nH]c21" What is its recorded viability at 100 µM?
20

Please look up its viability at 100 µM: "O=C1c2ccccc2C(=O)c2c1ccc1nsnc21"
17

Record request: viability at 100 µM value, item "O=C1c2ccccc2C(=O)c2c1ccc1nc(-c3ccc4c(c3)OCO4)[nH]c21"
40

Looking for the measured viability at 100 µM of "Cc1ccc(-c2nc3ccc4c(c3[nH]2)C(=O)c2ccccc2C4=O)cc1" , can you help?
16

Tell me the measured viability at 100 µM of "Cc1nc2ccc3c(c2[nH]1)C(=O)c1ccccc1C3=O" , please.
33

Which viability at 100 µM is listed for "CC1(C)Nc2ccc3c(c2N1)C(=O)c1ccccc1C3=O" ?
31

Suppose we examine the molecule "CCCCCCCc1nc2ccc3c(c2[nH]1)C(=O)c1ccccc1C3=O" ; what viability at 100 µM value has been reported?
40

---

test: Cytotoxicity against human H1299 cells at 10 uM after 48 hrs by MTT assay; type: functional; conditions: NCI-H1299, 48 h
Form field: viability at 10 µM (one value per entry).
// units = %; emit number, no label

// known answers, use as guide
| record_smiles | unit_text | viability at 10 µM |
| --- | --- | --- |
| CCCCc1nc2ccc3c(c2[nH]1)C(=O)c1ccccc1C3=O | % | 70 |
| Cc1nc2ccc3c(c2nc1C)C(=O)c1ccccc1C3=O | % | 69 |
| Cc1ccc(-c2nc3ccc4c(c3[nH]2)C(=O)c2ccccc2C4=O)cc1 | % | 72 |
| CCCCCCCc1nc2ccc3c(c2[nH]1)C(=O)c1ccccc1C3=O | % | 69 |

Fill in the blank: the reported viability at 10 µM of "O=C1c2ccccc2C(=O)c2c1ccc1nc(-c3ccccc3)[nH]c21" is ____.
72
